List of melting point values.
assay_endpoint: melting point

{"columns": ["compound", "assay_endpoint", "val"],
 "data": [
  ["O=C(O)c1ccc(C2(F)CC2c2ccc(Cl)cc2)cc1 (configuration not stated)", "melting point", "204 °C"],
  ["CN1C(=O)C(C(=N)c2ccccc2)=C(O)CC1c1ccccc1 (configuration not stated)", "melting point", "117 to 120 °C"],
  ["COc1cc2c(cc1OC)CN(C)C2", "melting point", "80 °C"],
  ["CCOC(=O)C(NC(=O)c1ccc(Cl)cc1)C(=O)OCC", "melting point", "89.5 to 90.3 °C"],
  ["CCCc1nc(C=O)c(Cl)c(N)c1F", "melting point", "89 to 91 °C"],
  ["COc1ccc(C(C)NC2=Nc3ccc(Cl)cc3C(=O)N(C)C2)cc1OC (configuration not stated)", "melting point", "175 to 178 °C"],
  ["COc1ccc(-c2coc3cc(O)ccc3c2=O)c(OC)c1", "melting point", "238 to 240 °C"],
  ["CC(=O)OCC(=O)C12OCOC1CC1C3CCC4=CC(=O)C=CC4(C)C3(F)C(O)CC12C (configuration not stated)", "melting point", "283 to 285 °C"],
  ["COC(=O)Cc1ccc(OCCNC(=O)C2Cc3ccccc3N2S(=O)(=O)c2ccc(-c3cc(Cl)ccc3Cl)cc2)cc1 (configuration not stated)", "melting point", "61 to 65 °C"],
  ["OC(CCCCCCCCCOCc1ccccc1)c1ccc(OCc2ccccc2)c(OCc2ccccc2)c1 (configuration not stated)", "melting point", "45 to 47 °C"],
  ["OCCCCNC1CCCCC1", "melting point", "48 to 50 °C"],
  ["CCN(CC)C[C@@H]1CCCN1CC(=O)N1c2ccccc2C(=O)Nc2cccnc21", "melting point", "192 to 193 °C"],
  ["CC1(C)Oc2ccc(C#N)cc2[C@@H](N2CCCC2=O)[C@@H]1O (relative stereo)", "melting point", "226 °C"],
  ["CCCn1cc2c(C3C(=O)Nc4ccc(C#N)cc43)nc(NCc3cccnc3)nc2n1 (configuration not stated)", "melting point", "291 to 295 °C"],
  ["CC(C)(C)c1cc(C=O)c2c(c1O)CCC2", "melting point", "213 to 214 °C"],
  ["Cc1nc(N2CCN(CC3CC3(F)F)C2=O)sc1C(=O)NCc1ncco1 (configuration not stated)", "melting point", "156 to 158 °C"],
  ["Cc1cc2c(c(C)c1SC#N)CCC(C)(C)O2", "melting point", "96 to 97 °C"]
]}
